Collected from the literature: pIC50 of various compounds toward Aurora kinase B (Homo sapiens, UniProt Q96GD4).
// pIC50 is dimensionless: -log10 of concentration (M)

moleculeSmiles: Cc1cn2c(-c3cn[nH]c3)cnc2c(Nc2ccc(C(=O)N3CCNCC3)c(Cl)c2)n1
recordedMetric: pIC50
endpointResult: 6.12

Task: Fill in: pIC50 of C[C@@H]1C[C@@H](N(C)C(=O)CC(C)(C)C)CN(c2cc(-c3ccc4c(N)n[nH]c4c3)nc(N)n2)C1 is ___
Output: 6.70

Task: GET /values?readout=pIC50&item= CC(=O)Nc1ccc(Cn2nc(Nc3cc[nH]n3)c3ccccc3c2=O)cc1
Output: 4.47

Task: Given the compound c1cc(Nc2ncnc3[nH]ccc23)cc(-c2nc3ccccc3s2)c1 , what is its reported pIC50?
Output: 5.19

Task: Consider the compound shown here: O=C(Nc1ccc(Cl)cc1)Nc1ccc(COc2ccc3nc(NCCN4CCOCC4)oc3c2)cc1 What is its recorded pIC50?
Output: 4.30

====

pIC50: −log10 of the molar value.
We begin with pIC50 values for Aurora kinase B (Homo sapiens, UniProt Q96GD4), as collected from the published literature.

The examples below pair each entry with its known result.
molecule: Cc1cc2c(Nc3ccc(-c4nc5ccccc5s4)cc3)ncnc2cc1Cl
assayedSystem: Aurora kinase B (Homo sapiens, UniProt Q96GD4)
Sequence (Q96GD4 whole entry): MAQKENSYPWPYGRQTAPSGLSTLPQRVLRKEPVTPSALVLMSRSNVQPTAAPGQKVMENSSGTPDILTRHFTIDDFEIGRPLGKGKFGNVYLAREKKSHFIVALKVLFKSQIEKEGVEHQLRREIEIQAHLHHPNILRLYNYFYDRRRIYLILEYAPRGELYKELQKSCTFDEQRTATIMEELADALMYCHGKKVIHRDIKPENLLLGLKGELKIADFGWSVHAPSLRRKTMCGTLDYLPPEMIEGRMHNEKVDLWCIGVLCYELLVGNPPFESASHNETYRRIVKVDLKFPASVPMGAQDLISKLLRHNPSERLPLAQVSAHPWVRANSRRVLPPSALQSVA
pIC50: < 5.00

molecule: Cc1cn2c(-c3cn[nH]c3)cnc2c(Nc2cc(C(C)N3CCOCC3)ns2)n1 (racemic)
assayedSystem: Aurora kinase B (Homo sapiens, UniProt Q96GD4)
pIC50: ≥ 7.89

molecule: COc1ccc(C(=O)NC(=O)Nc2ccc3c(c2)NC(=O)/C3=C\c2ccc(C(=O)O)[nH]2)cc1
assayedSystem: Aurora kinase B (Homo sapiens, UniProt Q96GD4)
pIC50: < 6.00

molecule: Cc1cc(Nc2nc(-c3ccccc3)nc3cc([N+](=O)[O-])ccc23)n[nH]1
assayedSystem: Aurora kinase B (Homo sapiens, UniProt Q96GD4)
pIC50: < 4.00

Please look at the following molecule next.
Task: Give the reported pIC50 for Cc1cn2c(-c3cn[nH]c3)cnc2c(Nc2ccc(C(=O)N3CCOCC3)cc2Cl)n1 (system: Aurora kinase B (Homo sapiens, UniProt Q96GD4)).
Output: < 4.70

====

Let's look at some IC50 data for Aurora kinase B (Homo sapiens) that I collected from the literature.

Reference set, count: 8
compound: COc1ccc(C(=O)Nc2c[nH]nc2-c2nc(-c3ccc(CN4CCOCC4)cc3)c[nH]2)cc1
assayedSystem: Aurora kinase B (Homo sapiens)
IC50: > 1 µM
--
compound: CS(=O)(=O)Nc1cc(-c2ccncc2)cnc1Cl
assayedSystem: Aurora kinase B (Homo sapiens)
IC50: > 10 µM
--
compound: Cc1cn2c(-c3cn[nH]c3)cnc2c(Nc2cc(CN3CCC(O)CC3)cs2)n1
assayedSystem: Aurora kinase B (Homo sapiens)
IC50: < 0.013 µM
--
compound: Cc1cccc(-n2nc(Nc3cc(C)[nH]n3)c3ccccc3c2=O)c1
assayedSystem: Aurora kinase B (Homo sapiens)
IC50: > 100 µM
--
compound: Cc1cn2c(-c3cnn(CC(=O)NCc4ccccc4)c3)cnc2c(Nc2cc(CN3CCCC(C)C3)ns2)n1 (stereo not given)
assayedSystem: Aurora kinase B (Homo sapiens)
IC50: ≤ 0.013 µM
--
compound: COc1cc2nc(Nc3cc(C)n[nH]3)nc(Nc3ccc(-c4nc5ccccc5s4)cc3)c2cc1OC
assayedSystem: Aurora kinase B (Homo sapiens)
IC50: > 10 µM
--
compound: FC(F)(F)CNc1nc(Nc2ccc3cn[nH]c3c2)nc2ccoc12
assayedSystem: Aurora kinase B (Homo sapiens)
IC50: > 10 µM
--
compound: CC(C)C[C@@H](NC(=O)OC(C)(C)C)C(=O)Nc1ccc2ncnc(Nc3ccc(F)c(Cl)c3)c2c1
assayedSystem: Aurora kinase B (Homo sapiens)
IC50: > 100 µM

Task: Query the reported IC50 for Aurora kinase B (Homo sapiens); item: COc1ccc(C(=O)Nc2ccc(NC(=O)c3ccccn3)cc2)cc1-c1c[nH]c(=O)[nH]c1=O
Output: > 30 µM

Task: Any idea what IC50 came out for COC(=O)Nc1ccc(-c2nc(N3CCOCC3)c3cnn(C4CCN(C(=O)OC)CC4)c3n2)cc1 on Aurora kinase B (Homo sapiens)?
Output: > 50 µM
